Target: T1, soluble human GPNMB (recombinant extracellular domain) (human, UniProt Q14956 23-498)
T1 construct: also called huGPNMB; recombinant human GPNMB extracellular domain; not shown: C-terminal polyhistidine or Avi-His tag
T1 sequence: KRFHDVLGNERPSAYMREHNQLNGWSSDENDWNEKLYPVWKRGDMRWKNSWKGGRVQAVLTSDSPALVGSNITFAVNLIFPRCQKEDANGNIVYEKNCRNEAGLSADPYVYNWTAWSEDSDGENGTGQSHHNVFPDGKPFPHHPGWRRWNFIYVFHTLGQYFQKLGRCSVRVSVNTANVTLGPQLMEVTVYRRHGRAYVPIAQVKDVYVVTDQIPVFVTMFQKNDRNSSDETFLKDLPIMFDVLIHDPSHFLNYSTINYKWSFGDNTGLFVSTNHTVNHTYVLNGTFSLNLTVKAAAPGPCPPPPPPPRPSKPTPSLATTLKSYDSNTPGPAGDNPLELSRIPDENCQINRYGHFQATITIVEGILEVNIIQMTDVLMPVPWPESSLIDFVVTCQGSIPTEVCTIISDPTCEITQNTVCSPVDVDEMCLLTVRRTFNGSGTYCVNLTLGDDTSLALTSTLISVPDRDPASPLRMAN
Experiment: SPR Biacore, IgG captured
Method: Binding kinetics of the humanized and affinity matured anti-GPNMB antibodies described above were evaluated using the Biacore T200 (Cytiva). […] Data were analyzed using Biacore evaluation software to generate kinetic constants. The equilibrium dissociation constants (KD) were calculated from the fitted association and dissociation rate constants (k-on and k-off) for each of the anti-GPNMB antibodies.
Items are presented alongside their recorded Kd.
Express the result in nM but write the number alone.

Examples with answers:
# Binder, Measured endpoint, Recorded value
rows = [
    ("anti-GPNMB antibody GPN-95 (antibody, V domains shown, also called PGN-95) VH: QVQLVQSGAEVKKPGASVKVSCKASGYTFTSYWMHWVRQAPGQGLEWMGEINPYDQRTNYAQKFQGRVTMTVDKSTSTVYMELSSLRSEDTAVYYCARSTGNYAWFAYWGQGTLVTVSS VL: DIVMTQSPDSLAVSLGERATINCKTSQDVSPSLAWYQQKPGQPPKLLIYSARYRYTGVPDRFSGSGSGTDFTLTISSLQAEDVAVYYCQQHYSIPLQFGGGTKVEIK", "Kd", 7.3),
    ("anti-GPNMB antibody GPN-87 (antibody, V domains shown) VH: QVQLQESGPGLVKPSETLSLTCTVSGISITTGNYRWSWIRQPPGKGLEWIGYIDYSGTITYNPSLKSRVTITRDTSKNQFSLELSSVTAADTAVYYCARDLTHWYYDVWGQGTLVTVSS VL: DIVMTQSPDSLAVSLGERATINCKSSRSVDYYGIGFLNWYQQKPGQPPKLLIYATSKQGSGVPDRFSGSGSGTDFTLTISSLQAEDVAVYYCQQQKEVPPTFGGGTKVEIK", "Kd", 5.4),
    ("anti-GPNMB antibody GPN-88 (antibody, V domains shown) VH: QVQLQESGPGLVKPSETLSLTCTVSGISITTGNYRWSWIRQPPGKGLEWIGYIDYSGTITYNPSLKSRVTITRDTSKNQFSLELSSVTAADTAVYYCARDLTHWYFDVWGQGTLVTVSS VL: DIVMTQSPDSLAVSLGERATINCKSSRSVDYYGIGFLNWYQQKPGQPPKLLIYATSHQGSGVPDRFSGSGSGTDFTLTISSLQAEDVAVYYCQQQKHVPPTFGGGTKVEIK", "Kd", 3.1),
]

Memo: anti-GPNMB antibody GPN-89 (antibody, V domains shown) VH: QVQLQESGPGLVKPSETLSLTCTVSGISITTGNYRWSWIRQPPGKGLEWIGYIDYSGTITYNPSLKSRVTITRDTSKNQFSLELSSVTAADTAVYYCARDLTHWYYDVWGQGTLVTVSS VL: DIVMTQSPDSLAVSLGERATINCKSSRSVDYYGIGFLNWYQQKPGQPPKLLIYATSHQGSGVPDRFSGSGSGTDFTLTISSLQAEDVAVYYCQQQKEVPPTFGGGTKVEIK , reported Kd: 2.9
